Organism: Homo sapiens
Procedure summary: Selectivity of human progesterone receptor over human glucocorticoid receptor
Reported endpoint: Ratio IC50

cpd_smiles=COc1ccc(C#C[C@]2(O)CC[C@H]3[C@@H]4OCC5=CC(=O)CCC5=C4[C@@H](c4ccc(N(C)C)cc4)C[C@@]32C)cc1 result=25
cpd_smiles=CN(C)c1ccc([C@H]2C[C@@]3(C)[C@@H](CC[C@@]3(O)C#Cc3ccccc3)[C@@H]3OCC4=CC(=O)CCC4=C32)cc1 result=217
cpd_smiles=CN(C)c1ccc([C@H]2C[C@@]3(C)[C@@H](CC[C@@]3(O)C#Cc3ccsc3)[C@@H]3OCC4=CC(=O)CCC4=C32)cc1 result=35
cpd_smiles=CN(C)c1ccc([C@H]2C[C@@]3(C)[C@@H](CC[C@@]3(O)C#Cc3ccccc3Cl)[C@@H]3OCC4=CC(=O)CCC4=C32)cc1 result=59
cpd_smiles=CC#C[C@]1(O)CC[C@H]2[C@@H]3OCC4=CC(=O)CCC4=C3[C@@H](c3ccc(N(C)C)cc3)C[C@@]21C result=12

List the reported Ratio IC50 of each compound below.
1. CN(C)c1ccc([C@H]2C[C@@]3(C)[C@@H](CC[C@@]3(O)C#Cc3ccc(F)cc3)[C@@H]3OCC4=CC(=O)CCC4=C32)cc1
2. Cc1ccccc1C#C[C@]1(O)CC[C@H]2[C@@H]3OCC4=CC(=O)CCC4=C3[C@@H](c3ccc(N(C)C)cc3)C[C@@]21C

result:
139
20

----------
Study system: Glucocorticoid receptor (Homo sapiens, UniProt P04150)
Sequence (P04150 whole entry): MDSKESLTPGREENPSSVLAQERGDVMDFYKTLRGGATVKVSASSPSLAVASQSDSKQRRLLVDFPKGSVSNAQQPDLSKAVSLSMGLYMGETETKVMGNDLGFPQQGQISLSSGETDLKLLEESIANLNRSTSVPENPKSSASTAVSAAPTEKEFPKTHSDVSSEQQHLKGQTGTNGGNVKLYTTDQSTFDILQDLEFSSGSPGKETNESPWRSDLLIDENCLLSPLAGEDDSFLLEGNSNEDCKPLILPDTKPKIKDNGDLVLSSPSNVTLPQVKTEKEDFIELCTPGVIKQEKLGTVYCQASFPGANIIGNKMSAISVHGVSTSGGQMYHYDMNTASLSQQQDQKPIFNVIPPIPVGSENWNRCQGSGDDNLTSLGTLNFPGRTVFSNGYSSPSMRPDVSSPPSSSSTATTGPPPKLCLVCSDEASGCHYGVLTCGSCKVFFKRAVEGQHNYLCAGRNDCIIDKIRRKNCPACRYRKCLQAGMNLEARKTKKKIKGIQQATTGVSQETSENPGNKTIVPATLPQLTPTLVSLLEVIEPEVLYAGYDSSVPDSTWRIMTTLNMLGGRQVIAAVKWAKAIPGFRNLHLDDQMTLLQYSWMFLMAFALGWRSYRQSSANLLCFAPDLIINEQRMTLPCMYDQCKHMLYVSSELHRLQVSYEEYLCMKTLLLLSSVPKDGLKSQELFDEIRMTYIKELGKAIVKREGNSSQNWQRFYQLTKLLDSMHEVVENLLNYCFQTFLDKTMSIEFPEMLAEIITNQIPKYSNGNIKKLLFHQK
Procedure summary: Antagonist activity at human glucocorticoid receptor assessed as inhibition of corticoid-induced transcription in human A549 cells by GRE-linked luciferase reporter gene assay
pIC50: −log10 of the molar value.
Kind request: treat 7 as inclusive, so pIC50 at 7 or higher is TRUE, anything lower is FALSE.

cpd_smiles=CN(C)c1ccc([C@H]2C[C@@]3(C)[C@@H](CC[C@@]3(O)C#Cc3cccc(C(F)(F)F)c3)[C@@H]3OCC4=CC(=O)CCC4=C32)cc1 label=TRUE
cpd_smiles=CN(C)c1ccc([C@H]2C[C@@]3(C)[C@@H](CC[C@@]3(O)C#Cc3ccccn3)[C@@H]3OCC4=CC(=O)CCC4=C32)cc1 label=FALSE
cpd_smiles=CN(C)c1ccc([C@H]2C[C@@]3(C)[C@@H](CC[C@@]3(O)C#Cc3cccc(F)c3)[C@@H]3OCC4=CC(=O)CCC4=C32)cc1 label=TRUE
cpd_smiles=CN(C)c1ccc([C@H]2C[C@@]3(C)[C@@H](CC[C@@]3(O)C#Cc3ccccc3C(F)(F)F)[C@@H]3OCC4=CC(=O)CCC4=C32)cc1 label=TRUE
cpd_smiles=CN(C)c1ccc([C@H]2C[C@@]3(C)[C@@H](CC[C@@]3(O)C#Cc3ccncc3)[C@@H]3OCC4=CC(=O)CCC4=C32)cc1 label=FALSE

query: Given the entry CN(C)c1ccc([C@H]2C[C@@]3(C)[C@@H](CC[C@@]3(O)C#Cc3ccc(F)cc3)[C@@H]3OCC4=CC(=O)CCC4=C32)cc1 , answer whether its pIC50 meets or surpasses 7.
result: TRUE

----------
Species: Homo sapiens
Procedure summary: Selectivity of human progesterone receptor over human glucocorticoid receptor
# binarize Ratio IC50: threshold 20 inclusive, high side TRUE, low side FALSE

Below are worked cases with known answers.
cpd_smiles=CN(C)c1ccc([C@H]2C[C@@]3(C)[C@@H](CC[C@@]3(O)C#Cc3cc(F)cc(F)c3)[C@@H]3OCC4=CC(=O)CCC4=C32)cc1 label=TRUE
cpd_smiles=CN(C)c1ccc([C@H]2C[C@@]3(C)[C@@H](CC[C@@]3(O)C#Cc3ccccc3Br)[C@@H]3OCC4=CC(=O)CCC4=C32)cc1 label=FALSE

Consider the additional compound presented here.
query: Quick check: does CN(C)c1ccc([C@H]2C[C@@]3(C)[C@@H](CC[C@@]3(O)C#Cc3ccncc3)[C@@H]3OCC4=CC(=O)CCC4=C32)cc1 have Ratio IC50 greater than or equal to 20?
result: FALSE

----------
Study system: Progesterone receptor (Homo sapiens)
Sequence (P06401 whole entry): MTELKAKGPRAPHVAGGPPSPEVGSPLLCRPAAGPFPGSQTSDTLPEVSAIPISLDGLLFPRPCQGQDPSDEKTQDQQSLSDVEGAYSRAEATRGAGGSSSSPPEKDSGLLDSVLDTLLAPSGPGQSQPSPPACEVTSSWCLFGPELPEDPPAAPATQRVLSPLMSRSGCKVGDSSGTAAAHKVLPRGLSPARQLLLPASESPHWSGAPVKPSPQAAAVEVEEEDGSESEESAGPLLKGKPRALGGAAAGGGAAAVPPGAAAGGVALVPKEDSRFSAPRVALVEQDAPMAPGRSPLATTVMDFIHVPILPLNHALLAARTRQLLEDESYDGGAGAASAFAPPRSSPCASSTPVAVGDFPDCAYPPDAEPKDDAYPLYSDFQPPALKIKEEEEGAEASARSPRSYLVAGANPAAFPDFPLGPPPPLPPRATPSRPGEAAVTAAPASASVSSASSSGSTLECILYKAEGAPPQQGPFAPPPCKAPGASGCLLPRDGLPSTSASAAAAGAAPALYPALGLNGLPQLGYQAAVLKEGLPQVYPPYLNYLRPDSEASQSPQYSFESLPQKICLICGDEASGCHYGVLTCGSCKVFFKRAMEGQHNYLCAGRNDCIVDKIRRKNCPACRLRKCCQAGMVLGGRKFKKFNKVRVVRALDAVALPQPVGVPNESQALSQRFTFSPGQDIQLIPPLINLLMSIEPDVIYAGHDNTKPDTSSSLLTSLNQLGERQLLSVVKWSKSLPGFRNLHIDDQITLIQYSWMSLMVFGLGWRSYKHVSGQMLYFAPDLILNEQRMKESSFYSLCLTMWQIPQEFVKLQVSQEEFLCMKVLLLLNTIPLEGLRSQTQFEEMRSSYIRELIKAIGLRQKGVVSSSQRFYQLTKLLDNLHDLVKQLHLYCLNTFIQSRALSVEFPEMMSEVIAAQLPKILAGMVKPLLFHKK
Procedure summary: Antagonist activity at human progesterone receptor assessed as inhibition of alkaline phosphatase activity in human T47D cells
So I've got a bunch of molecules here, and I need their pIC50 values.
One number for each entry, as −log10 of the molar value.

Fill in pIC50 for each of the 2 molecules listed.
1. CN(C)c1ccc([C@H]2C[C@@]3(C)[C@@H](CC[C@@]3(O)C#Cc3cccc(C(F)(F)F)c3)[C@@H]3OCC4=CC(=O)CCC4=C32)cc1
2. CN(C)c1ccc([C@H]2C[C@@]3(C)[C@@H](CC[C@@]3(O)C#Cc3ccc(C#N)cc3)[C@@H]3OCC4=CC(=O)CCC4=C32)cc1

result:
1. 8.57
2. 8.43

Give one value of pIC50 per listed molecule.
1. CN(C)c1ccc([C@H]2C[C@@]3(C)[C@@H](CC[C@@]3(O)C#Cc3ccsc3)[C@@H]3OCC4=CC(=O)CCC4=C32)cc1
2. CN(C)c1ccc([C@H]2C[C@@]3(C)[C@@H](CC[C@@]3(O)C#Cc3ccccc3C(F)(F)F)[C@@H]3OCC4=CC(=O)CCC4=C32)cc1
3. CN(C)c1ccc([C@H]2C[C@@]3(C)[C@@H](CC[C@@]3(O)C#Cc3ccccc3Br)[C@@H]3OCC4=CC(=O)CCC4=C32)cc1
4. CN(C)c1ccc([C@H]2C[C@@]3(C)[C@@H](CC[C@@]3(O)C#Cc3ccc(Cl)cc3)[C@@H]3OCC4=CC(=O)CCC4=C32)cc1

result:
[8.80, 8.49, 8.07, 9.21]

Below are some molecules; for each one, tell me its pIC50.
1. CN(C)c1ccc([C@H]2C[C@@]3(C)[C@@H](CC[C@@]3(O)C#Cc3ccc(C(F)(F)F)cc3)[C@@H]3OCC4=CC(=O)CCC4=C32)cc1
2. CN(C)c1ccc([C@H]2C[C@@]3(C)[C@@H](CC[C@@]3(O)C#Cc3ccc(Br)cc3)[C@@H]3OCC4=CC(=O)CCC4=C32)cc1
3. CN(C)c1ccc([C@H]2C[C@@]3(C)[C@@H](CC[C@@]3(O)C#Cc3ccccn3)[C@@H]3OCC4=CC(=O)CCC4=C32)cc1
4. CN(C)c1ccc([C@H]2C[C@@]3(C)[C@@H](CC[C@@]3(O)C#Cc3cccnc3)[C@@H]3OCC4=CC(=O)CCC4=C32)cc1

result:
1. 9.12
2. 9.03
3. 7.47
4. 7.68

----------
For each record, write down the corresponding IC50.
Study system: Glucocorticoid receptor (Homo sapiens, UniProt P04150)
Procedure summary: Antagonist activity at human glucocorticoid receptor assessed as inhibition of corticoid-induced transcription in human A549 cells by GRE-linked luciferase reporter gene assay
Please answer using a numeric value trailed by its unit.

cpd_smiles=CN(C)c1ccc([C@H]2C[C@@]3(C)[C@@H](CC[C@@]3(O)C#Cc3ccc(Br)cc3)[C@@H]3OCC4=CC(=O)CCC4=C32)cc1 result="31.3 nM"
cpd_smiles=CN(C)c1ccc([C@H]2C[C@@]3(C)[C@@H](CC[C@@]3(O)C#Cc3ccsc3)[C@@H]3OCC4=CC(=O)CCC4=C32)cc1 result="56 nM"
cpd_smiles=CN(C)c1ccc([C@H]2C[C@@]3(C)[C@@H](CC[C@@]3(O)C#Cc3ccc(Cl)cc3)[C@@H]3OCC4=CC(=O)CCC4=C32)cc1 result="43.5 nM"

# next compound below
query: # get_value(readout='IC50', item= CN(C)c1ccc([C@H]2C[C@@]3(C)[C@@H](CC[C@@]3(O)C#Cc3ccccc3Cl)[C@@H]3OCC4=CC(=O)CCC4=C32)cc1 )
result: 64.8 nM

----------
Species: Homo sapiens
Procedure summary: Selectivity of human progesterone receptor over human glucocorticoid receptor
Outcome: t for Ratio IC50 of at least 30; f for anything lower.

For orientation, consider the following solved cases.
cpd_smiles=CN(C)c1ccc([C@H]2C[C@@]3(C)[C@@H](CC[C@@]3(O)C#Cc3ccccc3C(F)(F)F)[C@@H]3OCC4=CC(=O)CCC4=C32)cc1 label=f
cpd_smiles=CN(C)c1ccc([C@H]2C[C@@]3(C)[C@@H](CC[C@@]3(O)C#Cc3cccc(F)c3)[C@@H]3OCC4=CC(=O)CCC4=C32)cc1 label=t
cpd_smiles=CN(C)c1ccc([C@H]2C[C@@]3(C)[C@@H](CC[C@@]3(O)C#Cc3cccc(C(F)(F)F)c3)[C@@H]3OCC4=CC(=O)CCC4=C32)cc1 label=f

query: Check the entry CN(C)c1ccc([C@H]2C[C@@]3(C)[C@@H](CC[C@@]3(O)C#Cc3ccc(Br)cc3)[C@@H]3OCC4=CC(=O)CCC4=C32)cc1 : does Ratio IC50 equal or exceed 30?
result: t

query: Lookup CN(C)c1ccc([C@H]2C[C@@]3(C)[C@@H](CC[C@@]3(O)C#Cc3ccccc3F)[C@@H]3OCC4=CC(=O)CCC4=C32)cc1
result: t

query: Field entry: CN(C)c1ccc([C@H]2C[C@@]3(C)[C@@H](CC[C@@]3(O)C#Cc3ccccn3)[C@@H]3OCC4=CC(=O)CCC4=C32)cc1
result: f

query: And the next one, Cc1ccc(C#C[C@]2(O)CC[C@H]3[C@@H]4OCC5=CC(=O)CCC5=C4[C@@H](c4ccc(N(C)C)cc4)C[C@@]32C)cc1 ?
result: f

query: And CN(C)c1ccc([C@H]2C[C@@]3(C)[C@@H](CC[C@@]3(O)C#Cc3ccc(C(C)(C)C)cc3)[C@@H]3OCC4=CC(=O)CCC4=C32)cc1 ?
result: f
